Biological target: human M4 receptor (Homo sapiens (Human))
Sequence (P08173 whole entry): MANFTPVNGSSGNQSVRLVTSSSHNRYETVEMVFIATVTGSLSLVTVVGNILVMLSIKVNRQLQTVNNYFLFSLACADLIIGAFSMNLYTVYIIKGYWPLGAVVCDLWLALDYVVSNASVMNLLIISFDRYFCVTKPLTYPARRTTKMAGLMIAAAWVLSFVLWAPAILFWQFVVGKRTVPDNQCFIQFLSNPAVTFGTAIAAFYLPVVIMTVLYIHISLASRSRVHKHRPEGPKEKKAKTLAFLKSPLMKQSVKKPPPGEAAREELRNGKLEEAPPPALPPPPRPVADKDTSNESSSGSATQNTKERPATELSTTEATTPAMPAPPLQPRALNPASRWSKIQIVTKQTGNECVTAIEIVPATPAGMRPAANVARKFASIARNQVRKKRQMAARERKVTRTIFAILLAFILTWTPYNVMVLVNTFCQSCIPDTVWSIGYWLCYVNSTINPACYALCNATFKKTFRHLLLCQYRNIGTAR
Experiment: Radioligand (tritiated N-methylscopolamine) binding assay, M4
Conditions: Ki against the M4 receptor; membranes from CHO cells expressing human M4; tritiated N-methylscopolamine 1.5 nM; read-out: Ki

- compound_structure: "C[C@@H]1CN(c2cc(F)c(F)c(F)c2)CCN1C(=O)NCCC1CCN(Cc2cccc(C#N)c2)CC1"
  Ki: "10 to 100 nM"
- compound_structure: "C[C@@H]1CN(c2cncc(C#N)c2)CCN1C(=O)NCCC1CCN(Cc2ccccc2)CC1"
  Ki: "100 to 1000 nM"
- compound_structure: "O=C(NCCC1CCN(Cc2ccccc2)CC1)[C@H]1CCN(c2ccc(OC(F)(F)F)cc2)C1"
  Ki: "100 to 1000 nM"
- compound_structure: "O=C(NCCC1CCN(Cc2ccccc2)CC1)c1ccc(-c2ccc(C(F)(F)F)cc2)cc1"
  Ki: "10 to 100 nM"
- compound_structure: "C[C@@H]1CN(c2ncc(Cl)cn2)CCN1C(=O)NCCC1CCN(Cc2ccccc2)CC1"
  Ki: "< 10 nM"
- compound_structure: "Cc1c(C(=O)NCCC2CCN(Cc3cccnc3)CC2)cnc2cc(-c3cccc(C(F)(F)F)c3)nn12"
  Ki: "100 to 1000 nM"
- compound_structure: "O=C(NCCC1CCN(Cc2ccccc2)CC1)N1CCC(c2cccc(F)c2)CC1"
  Ki: "100 to 1000 nM"
- compound_structure: "Cc1c(C(=O)NCCC2CCN(Cc3ccccc3)CC2)cnc2cc(-c3cc(F)ccc3F)nn12"
  Ki: "10 to 100 nM"
- compound_structure: "C[C@@H]1CN(c2cc(F)c(C#N)c(F)c2)CCN1C(=O)NCCC1CCN(Cc2ccccc2)CC1"
  Ki: "< 10 nM"
- compound_structure: "C[C@@H]1CN(c2cnc(C#N)nc2)C[C@H](C)N1C(=O)NCCC1CCN(Cc2ccccc2)CC1"
  Ki: "100 to 1000 nM"
- compound_structure: "Cc1nc(CN2CCC(CCNC(=O)C3CCN(c4ccc(OC(F)(F)F)cc4)CC3)CC2)cs1"
  Ki: "100 to 1000 nM"
- compound_structure: "C[C@@H]1CN(c2ccc(F)c(C#N)c2)CCN1C(=O)NC[C@H](O)C1CCN(Cc2ccccc2)CC1"
  Ki: "< 10 nM"
- compound_structure: "N#Cc1cccc(N2CCC(NC(=O)NCCC3CCN(Cc4ccccc4)CC3)CC2)c1"
  Ki: "100 to 1000 nM"
- compound_structure: "O=C(NCCC1CCN(Cc2ccccc2)CC1)N1CCN(c2ccccc2F)CC1"
  Ki: "100 to 1000 nM"
- compound_structure: "C[C@@H]1CN(c2cc(F)c(F)c(F)c2)CCN1C(=O)NCCC1CCN(Cc2cccc3c2OCC3)CC1"
  Ki: "< 10 nM"

---

Molecular target: human M1 receptor (Homo sapiens (Human), UniProt P11229)
Sequence (P11229 whole entry): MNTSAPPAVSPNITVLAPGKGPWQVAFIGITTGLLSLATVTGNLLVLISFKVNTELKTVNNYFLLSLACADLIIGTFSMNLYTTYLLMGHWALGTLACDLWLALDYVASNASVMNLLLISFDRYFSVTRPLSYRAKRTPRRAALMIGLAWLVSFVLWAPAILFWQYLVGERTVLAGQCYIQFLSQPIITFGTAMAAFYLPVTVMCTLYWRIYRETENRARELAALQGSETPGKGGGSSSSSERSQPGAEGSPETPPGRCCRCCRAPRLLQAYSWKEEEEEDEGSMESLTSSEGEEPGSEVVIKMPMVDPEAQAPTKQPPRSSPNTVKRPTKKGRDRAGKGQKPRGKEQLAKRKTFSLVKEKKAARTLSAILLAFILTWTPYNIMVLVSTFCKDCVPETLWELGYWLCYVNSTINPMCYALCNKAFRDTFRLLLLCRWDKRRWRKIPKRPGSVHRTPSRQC
Assay: Radioligand (tritiated N-methylscopolamine) binding assay, M1
Conditions: CHO cell membranes expressing human M1; 1.5 nM tritiated N-methylscopolamine; 90 min, 37° C.; read-out: Ki against M1 receptor (Table 21, M1)
Reported Ki is given for each of the following molecules.
attribute_measured: Ki

- molecule: "O=C(NCCC1CCN(Cc2ccccc2)CC1)N1CCN(c2ncc(C(F)(F)F)cn2)CC1 [5-24]"
  measured_value: "0.1 to 1 µM"
- molecule: "C[C@@H]1CN(c2ccc(F)c(C#N)c2)CCN1C(=O)NC[C@@H](O)C1CCN(Cc2ccccc2)CC1 [3-18]"
  measured_value: "> 1 µM"
- molecule: "C[C@@H]1CN(c2ccc(OC(F)(F)F)c(C#N)c2)CCN1C(=O)NCC[C@H]1CCN(Cc2ccccc2)C1 [9-10]"
  measured_value: "0.1 to 1 µM"
- molecule: "C[C@@H]1CN(c2ccc(F)c(F)c2)CCN1C(=O)NCCC1CCN(Cc2ccccc2)CC1 [4-15]"
  measured_value: "0.1 to 1 µM"
- molecule: "Cc1c(C(=O)NC[C@H](O)C2CCN(Cc3ccccc3)CC2)cnc2cc(-c3cccc(C(F)(F)F)c3)nn12 [17-6]"
  measured_value: "> 1 µM"
- molecule: "C[C@@H]1CN(c2cc(F)c(F)c(F)c2)CCN1C(=O)NCCC1CCN(Cc2ccccc2)CC1 [3-12]"
  measured_value: "0.1 to 1 µM"
- molecule: "C[C@@H]1CN(c2cnc(C#N)nc2)CCN1C(=O)NCCC1CCN(Cc2ccccc2)CC1 [4-80]"
  measured_value: "0.1 to 1 µM"
- molecule: "C[C@@H]1CN(c2cc(F)nc(F)c2)CCN1C(=O)NCCC1CCN(Cc2ccccc2)CC1 [22-30]"
  measured_value: "0.1 to 1 µM"
- molecule: "C[C@@H]1CN(c2cnc(C(F)(F)F)nc2)CCN1C(=O)NCCC1CCN(Cc2ccccc2)CC1 [4-79]"
  measured_value: "0.1 to 1 µM"
- molecule: "CC1CN(c2ccc(OC(F)(F)F)cc2)CCC1C(=O)NCCC1CCN(Cc2ccccc2)CC1 (stereo not shown) [10-42]"
  measured_value: "0.1 to 1 µM"
- molecule: "C[C@@H]1CN(c2ncc(C(F)(F)F)c(N)n2)CCN1C(=O)NCCC1CCN(Cc2ccccc2)CC1 [5-29]"
  measured_value: "> 1 µM"
- molecule: "COc1cc(N2CCN(C(=O)NCCC3CCN(Cc4ccccc4)CC3)[C@H](C)C2)cc(F)c1C#N [22-32]"
  measured_value: "0.1 to 1 µM"
- molecule: "C[C@@H]1CN(c2ncc(C(F)(F)F)c(N)n2)C[C@@H](C)N1C(=O)NCCC1CCN(Cc2ccccc2)CC1 [26-1]"
  measured_value: "0.1 to 1 µM"
- molecule: "CC1CN(c2cccc(OC(F)(F)F)c2)CCC1C(=O)NCCC1CCN(Cc2ccccc2)CC1 (stereo not shown) [10-18]"
  measured_value: "> 1 µM"
- molecule: "C[C@@H]1CN(c2cnc(C(F)(F)F)nc2)C[C@@H](C)N1C(=O)NCCC1CCN(Cc2ccccc2)CC1 [26-6]"
  measured_value: "0.01 to 0.1 µM"
- molecule: "O=C(NCCC1CCN(Cc2ccccc2)CC1)C1CCN(c2ccc(C(F)(F)F)cc2)CC1 [10-9]"
  measured_value: "> 1 µM"
- molecule: "C[C@H]1CN(c2ccc(F)c(C#N)c2)CCN1C(=O)NCCC1CCN(Cc2ccccc2)CC1 [4-20]"
  measured_value: "0.1 to 1 µM"
- molecule: "C[C@@H]1CN(c2cnc(C(F)(F)F)cn2)CCN1C(=O)NCCC1CCN(Cc2ccccc2)CC1 [22-22]"
  measured_value: "0.1 to 1 µM"
- molecule: "C[C@H]1CN(c2ccc(C#N)cn2)CCC1C(=O)NCCC1CCN(Cc2ccccc2)CC1 (stereo partly shown) [10-79]"
  measured_value: "0.1 to 1 µM"
- molecule: "C[C@H]1CN(c2ccc(OC(F)(F)F)c(C#N)c2)CCN1C(=O)NCCC1CCN(Cc2ccccc2)CC1 [4-21]"
  measured_value: "0.1 to 1 µM"
- molecule: "C[C@@H]1CN(c2ncc(Cl)cn2)CCN1C(=O)NCCC1CCN(Cc2ccccc2)CC1 [5-22]"
  measured_value: "0.1 to 1 µM"
- molecule: "C[C@@H]1CN(c2ncc(C(F)(F)F)cn2)CCN1C(=O)NCCC1CCN(Cc2cccc(F)c2)CC1 [6-36]"
  measured_value: "0.1 to 1 µM"
